B1: HDV Ribozyme (parent)
chain: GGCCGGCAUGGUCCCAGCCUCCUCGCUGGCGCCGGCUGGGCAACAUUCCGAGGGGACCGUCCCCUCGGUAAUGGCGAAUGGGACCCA

Variants of: B1
Assay: self-cleavage, relative activity (ratio to wild type); higher = more cleavage; co-transcriptional
Give True when the value for self-cleavage is at least 0.3. Give False when it is less.

| CHAIN SEQUENCE | GROUP LABEL |
| --- | --- |
| GGCCGGCAUGGUCCCAGCCUCCUCGCUGGCGCCGGCUGGGCAACAUCCCGAGGGGUCCGUCCCCUCGGUAAUGGCGAAUGGGACCCA | True |
| GGCCGGCAUGGUCCCAGCCUCCUCGAUGGCGCCGGCUGGGCAACAUUCCGAGGGGACCGUCCCCUCGGUAAUGGCGAAUGGGACGCA | True |
| GGCCGGCAUGGCCCUAGCCUCCUCGCUGGCGCCGGCUGGGCAACAUUCCGAGGGGACCGUCCCCUCGGUAAUGGCGAAUGGGACCCA | False |
| GGCCGGCAUGGUCCCAGCCUCCUCGCUGGCGCCGGCUGGGCAACAUUCCGAGGGGACCGUCCCCCCGAUAAUGGCGAAUGGGACCCA | True |
| GGCCGGCAUGGUCCCAGCCUCCUCGCUGGCGCCGGCUGGGCAACAUUCCGAGGGGACCGUCCCCUCUGUGAUGGCGAAUGGGACCCA | True |
| GGCCGGCAUGGUCCCAGCCUCCUCGCUGGCGCCGGCUGGGCAACAUUCCGAGGGGAUCGUGCCCUCGGUAAUGGCGAAUGGGACCCA | True |
| GGCCGGCAUGGUCCCAGCCUCCUCGCUGGCGCCGGCUGGGUAACAUUCCGAGGGGACCGUCCCCUCGGUAAUGGCGGAUGGGACCCA | True |
| GGCCGGCAUGGUCCCAGCCUCCUCGCUGGCGCGGGCUGGGCAACAUCCCGAGGGGACCGUCCCCUCGGUAAUGGCGAAUGGGACCCA | True |
| GGCCGGCAUGGUCCCAGCCGCCUCGCUGGCGCCGGCUGGGCAACAUUCCGAGGGGACCGUCCCCUCGGUAAUUGCGAAUGGGACCCA | False |
| GGCCGGCAUGGUCCCAGCCUUCUCGCUGGCGCCGGCUGGGCAACAUUCCGAGGGGACUGUCCCCUCGGUAAUGGCGAAUGGGACCCA | False |
| GGCCGGCAUGGUCCCAGCUUCCUCGCUGCCGCCGGCUGGGCAACAUUCCGAGGGGACCGUCCCCUCGGUAAUGGCGAAUGGGACCCA | False |
| GGCCUGCAUGGUCCCAGCCUCCUCGCUGGCGCCGGCUGGGCAACAUUCCGAGGGGACCGUCCCCUCGGUAAUGGCGAAUGAGACCCA | False |
| GGCCGGCAUGGUCACAGCCUCCUCGCUGGCGCAGGCUGGGCAACAUUCCGAGGGGACCGUCCCCUCGGUAAUGGCGAAUGGGACCCA | False |
| GGCCGGCAUGGUCCCAGCCUCCUCGCUGGCGCCGGCUGGGCAACAUUACGAAGGGACCGUCCCCUCGGUAAUGGCGAAUGGGACCCA | True |
| GGCCGGCAUGGUCCCAGCCUCCUCGCUGGCGCCGGCUGGGCAACCUUCUGAGGGGACCGUCCCCUCGGUAAUGGCGAAUGGGACCCA | True |
| GGCCGGCAUGGUCCCAGCCUCCUCGCUGGCGCCGGUUGGGCAACAUUCCGAAGGGACCGUCCCCUCGGUAAUGGCGAAUGGGACCCA | True |
| GGCCGGCAUGGUCCCAGCCUCCUCGCUGGCGCCGGCUGGGCAACAUGCCGAGGGGACCGUCCCCUCGGUAAUGGCGAAUGGGACCCC | True |
| GGCCGGCAUGGUCCCAGUCUCCUCGCUGGCGCCGGCUGGGCAACAUUCCGAGGGGAACGUCCCCUCGGUAAUGGCGAAUGGGACCCA | True |
| GGCCGGCAUGGUCCCAGCCUCCUCGAAGGCGCCGGCUGGGCAACAUUCCGAGGGGACCGUCCCCUCGGUAAUGGCGAAUGGGACCCA | True |
| GGCCGGCAUGGUCCUAGCCUCCUCGCUGGCGCCGGCUGGGCAACAUUCCGAGGGGACCGUCCGCUCGGUAAUGGCGAAUGGGACCCA | True |
| GGCCGGCAUGGACCCAGCCUCCUCCCUGGCGCCGGCUGGGCAACAUUCCGAGGGGACCGUCCCCUCGGUAAUGGCGAAUGGGACCCA | False |
| GGCCGGCAUGAUCCCAGCCUCCUCGCUGGCGCCGGCUGGGCAACAUUCCGAGGGGACCGUCCCCUCGGUAAUGUCGAAUGGGACCCA | False |
| GGCCGGCAUGGUCCCAGCCUCCUCGCUGGCGCCGGCUGGGCAACACUCCGAGGGGACCGUCCCCUCGGUAAAGGCGAAUGGGACCCA | True |
| GGCCGGCAUGGUCCCAGCCUCCUCGCUGGCGCCGGCUGGGCAACAUUCCGAGGUGACCGUCCCCUCGGUAAUGGCGAAUGGUACCCA | True |
| GGCCGGCAUGGUCCCAGCCUCCUCGCGGGCGCUGGCUGGGCAACAUUCCGAGGGGACCGUCCCCUCGGUAAUGGCGAAUGGGACCCA | True |
| GGCCGGCAUGGUCCCAGCCUCCUCGCUGGCGCCGGCUGGGCAACAUUCCGAGGGGUCCGUCCCCUCGGUAAUGGCGAAUGGGACCAA | True |
| GGCCGGCAUGGUCCCAGCCUCCUCGAUGGCGCCGGCUGGGCAACAUUCCGAGGGGACCGUCCCCUCGGUAAUGGCGUAUGGGACCCA | True |
| GGCCGGCAUGGUCCCAGCCUCCUCGCUGGCGCCGGCUGGGCAACUUUCCGAGGCGACCGUCCCCUCGGUAAUGGCGAAUGGGACCCA | True |
| GGCUGGCAUGGUCCCAGCCUCCUCGCUGGCGCCGGCUGGGCAACAUUCCGAGGGGACCGUCCCCUCGGUAAUGGCGAAUGGGACCGA | True |
| GGCCGGCGUGGUCCCAGCCUUCUCGCUGGCGCCGGCUGGGCAACAUUCCGAGGGGACCGUCCCCUCGGUAAUGGCGAAUGGGACCCA | False |
| GGCCGGCAUGGUCCCAGCCUCCUCGCUGGCGCCGGCUGGGCAACAUUCCUAGGGGACCGUGCCCUCGGUAAUGGCGAAUGGGACCCA | True |
| GGCCGGCAUGGUCCCAGCCUCCUCGCUGGCGCCGGCUGGGCAACAUUCCGAGGGGACCGACCCCUCGAUAAUGGCGAAUGGGACCCA | True |
| GGCCGGCAUGGUCCCAGCCUCCUCGCUGGCGCCGGCUGGCCAACAUUCCGAGGGGACCGUCCCCUCGGUAAUGGCGAAUGGGACCCC | False |
| GGCCGGCAUGGUCCCAGCCGCCUCGCUGGCGCCGGCUGGGCAACAUUCCGAGGGGACCGUCCCCUCGGUAAUGGCGAAUGGGAUCCA | False |
| GGCCGGCAUGGUCCCAGCCUCCUCGCUUGCGCCGUCUGGGCAACAUUCCGAGGGGACCGUCCCCUCGGUAAUGGCGAAUGGGACCCA | False |
| GGCCGGCAUGGUCCCAGGCUCCUCGCUGGCGCCGGCUGGGCAACAUUCCGAGGGGACCGUCCCAUCGGUAAUGGCGAAUGGGACCCA | False |
| GGCCGGCAUGGUCCCAGCCUCCUCGCUGGCGCCAGCUGGGCAACAUUCCGAGGGGCCCGUCCCCUCGGUAAUGGCGAAUGGGACCCA | False |
| GGCCGGCAUGGUCCCAGCCUCCUCGCUGGCGCCGGCUGGGCAACAUUCCGAGGUGACCGUCCCCUCGGUAAAGGCGAAUGGGACCCA | True |
| GGCCGGCAUGGUCCCAGCCUCCUCGCUGGCGCCCGCUGGGCAACAUUCCGCGGGGACCGUCCCCUCGGUAAUGGCGAAUGGGACCCA | False |
| GGCCGGCAUGGUCCCAGCCUCCUCGCUGGCGCCGGCUGGGCAACAUUCCGAGGUGACCGUCCCCUCGGUAAUGGCGAAUGUGACCCA | True |
| GGCCGGCAUGGUCCCAGCCUCCUCGCUGACGCCGGCUGGGCAACAUUCCGAGGGGACCGUACCCUCGGUAAUGGCGAAUGGGACCCA | False |
| GGCCGGCAUGGUACCAGCCUCCUCGCUGGCGCCGGCUGGGCAACAUUCCGAGGGGACCGUCCCCUCGGUAAUGGCGAAUGAGACCCA | False |
| GGCCGGCAUGGUCCCAGCCUCCUCGCUGGCGCCGGCUCGGCAACAUUCCGAGGGGACCGUCCCCUCGGUAAUGGCGAAUUGGACCCA | False |
| GGCCGGCAUGGUCCCAGCAUCCUCGCUGGCGCCGGCUGGGCAACAUUCCAAGGGGACCGUCCCCUCGGUAAUGGCGAAUGGGACCCA | False |
| GGCCGGCAUGGUCCCAGCCUUCUCGCAGGCGCCGGCUGGGCAACAUUCCGAGGGGACCGUCCCCUCGGUAAUGGCGAAUGGGACCCA | False |
| GGCCGGCAUGGUCCCAGCCUCCUCGCUGGCGCCGGCUGGGCAACAUUCCGCGGGGACCGUCCCCGCGGUAAUGGCGAAUGGGACCCA | True |
